Reported IC50 for target or system BTK (Homo sapiens, UniProt Q06187), by entry.

compound="C=CC(=O)N1CCC[C@H](Sc2nc(-c3cnn(C)c3)cn3nccc23)CC1 (single isomer, unassigned)" result="1000 to 10000 nM"
compound="C=CC(=O)N1C[C@H]2C[C@@H](c3nc(-c4cnn(C)c4)cn4nccc34)C[C@H]2C1 (single isomer, unassigned)" result="< 1 nM"
compound="C=CC(=O)N1CC2CCC1CC2c1nc(-c2cnn(C)c2)cn2nccc12 (stereo not drawn)" result="1 to 10 nM"

Which measured IC50 value corresponds to C=CC(=O)N(C)[C@H]1CCC[C@H](c2nc(-c3cnn(C)c3)cn3nccc23)C1 (single isomer, unassigned) ?
10 to 1000 nM

Which measured IC50 value corresponds to C=CC(=O)N1C2CCCC1CC(c1nc(-c3cnn(C)c3)cn3nccc13)C2 (stereo not drawn) ?
1 to 10 nM

Which measured IC50 value corresponds to C=CC(=O)N(C)[C@H]1CCC[C@@H](c2nc(-c3cnn(C)c3)cn3nccc23)C1 (single isomer, unassigned) ?
1 to 10 nM
